Test system: 677734-321-R-J1-PDC complex spheroid viability
Test: Anticancer human tumor 677734-321-R-J1-PDC patient-derived soft tissue sarcoma cell line growth inhibition [POLQ]
Conditions: second compound 10 µM; first compound 0.0316 µM; stronger effect = lower value
Experimental Endpoint: viability, T/C (%)
Give the number; % is assumed, so skip it.

// worked examples, viability, T/C included
{"Compound": "O=C(Nc1ccc(O)c(NS(=O)(=O)c2ccc(F)cc2)c1)c1ccc(-c2ccccc2)cc1 + Nc1ccc(C#CCN(C(=O)Cc2ncc(C(F)(F)F)cc2C(F)(F)F)c2ccc(F)cc2)nn1", "Experimental Endpoint": "viability, T/C", "Reported Value": 109}
{"Compound": "C=CCn1c(=O)c2cnc(Nc3ccc(N4CCN(C)CC4)cc3)nc2n1-c1cccc(C(C)(C)O)n1 + Nc1ccc(C#CCN(C(=O)Cc2ncc(C(F)(F)F)cc2C(F)(F)F)c2ccc(F)cc2)nn1", "Experimental Endpoint": "viability, T/C", "Reported Value": 108}
{"Compound": "CC1COCCN1c1cc(C2(O)CC3CCC(C2)O3)c2cnn(-c3ccn[nH]3)c2n1 (stereo not given) + COC1C(OC(N)=O)C(O)C(Oc2ccc3c(O)c(NC(=O)c4ccc(O)c(CC=C(C)C)c4)c(=O)oc3c2C)OC1(C)C", "Experimental Endpoint": "viability, T/C", "Reported Value": 89.6}
{"Compound": "CC1COCCN1c1cc(C2(O)CC3CCC(C2)O3)c2cnn(-c3ccn[nH]3)c2n1 (stereo not given) + Cc1cccc(N(C)C(=O)C2C(O)CCN2c2nc(C)cc(C(F)(F)F)c2C#N)c1", "Experimental Endpoint": "viability, T/C", "Reported Value": 85.6}

Value sought: viability, T/C, system 677734-321-R-J1-PDC complex spheroid viability, item CC1COCCN1c1cc(C2(S(C)(=N)=O)CC2)nc(-c2ccnc3[nH]ccc23)n1 (stereo not given) + Cc1cccc(N(C)C(=O)C2C(O)CCN2c2nc(C)cc(C(F)(F)F)c2C#N)c1 . Result: 102

* * *

Tested on: 677734-321-R-J1-PDC complex spheroid viability
Experiment: Anticancer human tumor 677734-321-R-J1-PDC cell line growth inhibition [POLQ];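 further: spheroids exposed to compounds for one week; 100% = vehicle DMSO treated spheroids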
Conditions: second compound 3.16 µM; first compound 1 µM; stronger effect = lower value
Reported viability, T/C values for a set of molecules
Give the number; % is assumed, so skip it.

// worked examples, viability, T/C included
{"Molecule": "CC1COCCN1c1cc(C2(O)CC3CCC(C2)O3)c2cnn(-c3ccn[nH]3)c2n1 (stereo not drawn) + Cc1cccc(N(C)C(=O)C2C(O)CCN2c2nc(C)cc(C(F)(F)F)c2C#N)c1", "Units Symbol": "%", "viability, T/C": 18.4}
{"Molecule": "CCc1cc2c(N3CCc4c(cc(Cn5ccnc5)cc4-c4cn(C)nc4C(F)(F)F)C3=O)cc(C)nc2c(OC)n1 + COC1C(OC(N)=O)C(O)C(Oc2ccc3c(O)c(NC(=O)c4ccc(O)c(CC=C(C)C)c4)c(=O)oc3c2C)OC1(C)C", "Units Symbol": "%", "viability, T/C": 98.2}

Moving on to another molecule below.
Value sought: viability, T/C, system 677734-321-R-J1-PDC complex spheroid viability, item O=C(c1cc(Cc2n[nH]c(=O)c3ccccc23)ccc1F)N1CCN(C(=O)C2CC2)CC1 + Cc1cccc(N(C)C(=O)C2C(O)CCN2c2nc(C)cc(C(F)(F)F)c2C#N)c1 . Result: 99.6

* * *

System: 677734-321-R-J1-PDC complex spheroid viability
Assay: Anticancer human tumor 677734-321-R-J1-PDC cell line growth inhibition [POLQ];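 further: spheroids exposed to compounds for one week; 100% = vehicle DMSO treated spheroids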
Conditions: second compound 1 µM; first compound 0.001 µM; stronger effect = lower value
Reported viability, T/C values for a set of compounds

// worked examples, viability, T/C included
{"Compound": "Cn1ncnc1[C@H]1c2n[nH]c(=O)c3cc(F)cc(c23)N[C@@H]1c1ccc(F)cc1 + Cc1cccc(N(C)C(=O)C2C(O)CCN2c2nc(C)cc(C(F)(F)F)c2C#N)c1", "Reported Value": "96.4%"}
{"Compound": "Cn1ncnc1[C@H]1c2n[nH]c(=O)c3cc(F)cc(c23)N[C@@H]1c1ccc(F)cc1 + COC1C(OC(N)=O)C(O)C(Oc2ccc3c(O)c(NC(=O)c4ccc(O)c(CC=C(C)C)c4)c(=O)oc3c2C)OC1(C)C", "Reported Value": "102%"}
{"Compound": "CC[C@@]1(O)C(=O)OCc2c1cc1n(c2=O)Cc2cc3c(CN(C)C)c(O)ccc3nc2-1 + Nc1ccc(C#CCN(C(=O)Cc2ncc(C(F)(F)F)cc2C(F)(F)F)c2ccc(F)cc2)nn1", "Reported Value": "99.9%"}

Kindly note the recorded viability, T/C for Cn1ncnc1[C@H]1c2n[nH]c(=O)c3cc(F)cc(c23)N[C@@H]1c1ccc(F)cc1 + Nc1ccc(C#CCN(C(=O)Cc2ncc(C(F)(F)F)cc2C(F)(F)F)c2ccc(F)cc2)nn1 , which is 97.8%

Kindly note the recorded viability, T/C for CC[C@@]1(O)C(=O)OCc2c1cc1n(c2=O)Cc2cc3c(CN(C)C)c(O)ccc3nc2-1 + COC1C(OC(N)=O)C(O)C(Oc2ccc3c(O)c(NC(=O)c4ccc(O)c(CC=C(C)C)c4)c(=O)oc3c2C)OC1(C)C , which is 109%

Kindly note the recorded viability, T/C for CC[C@@]1(O)C(=O)OCc2c1cc1n(c2=O)Cc2cc3c(CN(C)C)c(O)ccc3nc2-1 + Cc1cccc(N(C)C(=O)C2C(O)CCN2c2nc(C)cc(C(F)(F)F)c2C#N)c1 , which is 96.4%

* * *

System: 677734-321-R-J1-PDC complex spheroid viability
Test: Anticancer human tumor 677734-321-R-J1-PDC cell line growth inhibition [POLQ]; active = viability on the fitted dose curve at most 10% of control; inactive = the rest;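 further: spheroids exposed to compounds for one week; 100% = vehicle DMSO treated spheroids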
Conditions: second compound 3.16 µM; first compound 1 µM
# output must be one of YES for active, NO for inactive

For orientation, consider the following solved cases.
{"Molecule": "COc1cccc2c1C(=O)c1c(O)c3c(c(O)c1C2=O)CC(O)(C(=O)CO)CC3OC1CC(N)C(O)C(C)O1 (stereo unspecified) + Cc1cccc(N(C)C(=O)C2C(O)CCN2c2nc(C)cc(C(F)(F)F)c2C#N)c1", "Assigned Label": "YES"}
{"Molecule": "O=c1[nH]cc(F)c(=O)[nH]1 + Cc1cccc(N(C)C(=O)C2C(O)CCN2c2nc(C)cc(C(F)(F)F)c2C#N)c1", "Assigned Label": "NO"}
{"Molecule": "COc1cc(C2c3cc4c(cc3C(OC3OC5COC(C)OC5C(O)C3O)C3COC(=O)C23)OCO4)cc(OC)c1O (stereo unspecified) + Nc1ccc(C#CCN(C(=O)Cc2ncc(C(F)(F)F)cc2C(F)(F)F)c2ccc(F)cc2)nn1", "Assigned Label": "NO"}
{"Molecule": "CC1COCCN1c1cc(C2(S(C)(=N)=O)CC2)nc(-c2ccnc3[nH]ccc23)n1 (stereo unspecified) + COC1C(OC(N)=O)C(O)C(Oc2ccc3c(O)c(NC(=O)c4ccc(O)c(CC=C(C)C)c4)c(=O)oc3c2C)OC1(C)C", "Assigned Label": "NO"}
{"Molecule": "COc1cccc(OCCCN)c1-c1cc(Nc2cnc(C#N)cn2)n[nH]1 + Nc1ccc(C#CCN(C(=O)Cc2ncc(C(F)(F)F)cc2C(F)(F)F)c2ccc(F)cc2)nn1", "Assigned Label": "YES"}

Pending molecule:
Prompt: Record request — test call for Nc1ccn(C2OC(CO)C(O)C2(F)F)c(=O)n1 (stereo unspecified) + Cc1cccc(N(C)C(=O)C2C(O)CCN2c2nc(C)cc(C(F)(F)F)c2C#N)c1
Response: NO

* * *

Reported viability, T/C values for a set of compounds
Test system: 677734-321-R-J1-PDC complex spheroid viability
Test: Anticancer human tumor 677734-321-R-J1-PDC cell line growth inhibition [POLQ];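 further: spheroids exposed to compounds for one week; 100% = vehicle DMSO treated spheroids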
Details: second compound 0.0316 µM; first compound 0.00316 µM; stronger effect = lower value
Give the number; % is assumed, so skip it.

// worked examples, viability, T/C included
{"Compound": "CCc1c2c(nc3ccc(O)cc13)-c1cc3c(c(=O)n1C2)COC(=O)[C@]3(O)CC + COC1C(OC(N)=O)C(O)C(Oc2ccc3c(O)c(NC(=O)c4ccc(O)c(CC=C(C)C)c4)c(=O)oc3c2C)OC1(C)C", "Units Symbol": "%", "viability, T/C": 28.4}
{"Compound": "CC[C@@]1(O)C(=O)OCc2c1cc1n(c2=O)Cc2cc3c(CN(C)C)c(O)ccc3nc2-1 + Nc1ccc(C#CCN(C(=O)Cc2ncc(C(F)(F)F)cc2C(F)(F)F)c2ccc(F)cc2)nn1", "Units Symbol": "%", "viability, T/C": 117}
{"Compound": "COc1cccc(OCCCN)c1-c1cc(Nc2cnc(C#N)cn2)n[nH]1 + COC1C(OC(N)=O)C(O)C(Oc2ccc3c(O)c(NC(=O)c4ccc(O)c(CC=C(C)C)c4)c(=O)oc3c2C)OC1(C)C", "Units Symbol": "%", "viability, T/C": 97.1}
{"Compound": "Cn1ncnc1[C@H]1c2n[nH]c(=O)c3cc(F)cc(c23)N[C@@H]1c1ccc(F)cc1 + COC1C(OC(N)=O)C(O)C(Oc2ccc3c(O)c(NC(=O)c4ccc(O)c(CC=C(C)C)c4)c(=O)oc3c2C)OC1(C)C", "Units Symbol": "%", "viability, T/C": 99.7}

Moving on to another compound below.
Kindly note the recorded viability, T/C for COc1cccc(OCCCN)c1-c1cc(Nc2cnc(C#N)cn2)n[nH]1 + Cc1cccc(N(C)C(=O)C2C(O)CCN2c2nc(C)cc(C(F)(F)F)c2C#N)c1 , which is 80.6
